Assay: 1-Octanol/water distribution coefficient measured at 7.4
Type: physicochemical
Conditions: pH 7.4
logD for assorted compounds
Format: numeric value only, no unit, no commentary.

INPUT: Which measured logD value corresponds to "c1ccc(CN2CCc3[nH]ccc3C2)cc1" ?
OUTPUT: 1.59

INPUT: Which measured logD value corresponds to CC1CN(C)C(C)c2cc([N+](=O)[O-])[nH]c21 (stereo not given) ?
OUTPUT: 1.14

###

Assay: 1-Octanol/water distribution coefficient measured at 7.4
Format: physicochemical
Conditions: pH 7.4
assay metric: logD
Format: numeric value only, no unit, no commentary.

The examples below pair each entry with its known result.
{"columns": ["compound", "logD"],
 "data": [
  ["CC1CN(C)C(C)c2cc(C=O)[nH]c21 (stereo not drawn)", 0.69],
  ["CC1CNC(C)c2cc[nH]c21 (stereo not drawn)", -1.08]
]}

In the following, a different compound is considered.
INPUT: Which measured logD value corresponds to CC1CN(C)C(C)c2cc[nH]c21 (stereo not drawn) ?
OUTPUT: -0.41
